- targetSystem: TNKS2 (Homo sapiens, UniProt Q9H2K2)
- Sequence (Q9H2K2 1-1166): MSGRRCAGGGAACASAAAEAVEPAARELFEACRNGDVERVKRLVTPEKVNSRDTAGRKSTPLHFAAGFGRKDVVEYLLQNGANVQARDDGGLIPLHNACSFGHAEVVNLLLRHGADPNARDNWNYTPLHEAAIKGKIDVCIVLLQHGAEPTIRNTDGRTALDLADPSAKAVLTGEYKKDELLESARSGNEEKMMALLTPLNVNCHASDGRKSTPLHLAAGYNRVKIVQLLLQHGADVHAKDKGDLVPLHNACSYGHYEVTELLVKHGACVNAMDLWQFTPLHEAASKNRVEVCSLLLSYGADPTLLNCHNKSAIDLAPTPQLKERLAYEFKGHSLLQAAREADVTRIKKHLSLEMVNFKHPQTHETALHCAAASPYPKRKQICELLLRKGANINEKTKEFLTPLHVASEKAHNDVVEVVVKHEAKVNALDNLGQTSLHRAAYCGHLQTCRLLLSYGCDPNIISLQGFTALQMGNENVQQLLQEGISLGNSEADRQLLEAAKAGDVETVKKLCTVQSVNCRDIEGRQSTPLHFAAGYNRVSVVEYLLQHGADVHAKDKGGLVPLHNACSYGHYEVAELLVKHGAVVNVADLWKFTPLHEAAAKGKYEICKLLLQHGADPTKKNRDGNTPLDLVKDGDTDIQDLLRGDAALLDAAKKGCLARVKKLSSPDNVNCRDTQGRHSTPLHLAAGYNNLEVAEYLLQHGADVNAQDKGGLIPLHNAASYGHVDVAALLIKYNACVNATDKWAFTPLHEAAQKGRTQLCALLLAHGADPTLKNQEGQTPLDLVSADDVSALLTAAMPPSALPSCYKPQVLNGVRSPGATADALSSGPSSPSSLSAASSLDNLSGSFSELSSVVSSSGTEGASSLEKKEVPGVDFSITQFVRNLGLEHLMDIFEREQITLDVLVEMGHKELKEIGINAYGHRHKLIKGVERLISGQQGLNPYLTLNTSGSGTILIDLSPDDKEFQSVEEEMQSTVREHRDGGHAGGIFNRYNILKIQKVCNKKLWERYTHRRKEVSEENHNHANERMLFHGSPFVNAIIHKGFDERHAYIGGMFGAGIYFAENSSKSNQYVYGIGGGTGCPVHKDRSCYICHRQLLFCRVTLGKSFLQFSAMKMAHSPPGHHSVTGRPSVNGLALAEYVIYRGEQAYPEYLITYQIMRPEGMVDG
pIC50: −log10 of the molar value.
Returns fulfilled if the recorded pIC50 is greater than or equal to 6, and not fulfilled otherwise.

{"molecule": "O=C(NCC(F)(F)F)c1nc[nH]c1C(=O)N[C@H]1CC[C@H](C(=O)Nc2cc(N3CCOCC3)ccc2Cl)CC1 [Example 95]", "className": "not fulfilled"}
{"molecule": "O=C(NCC1CCCO1)c1nc[nH]c1C(=O)N[C@H]1CC[C@H](C(=O)Nc2cc(F)c(F)cc2Cl)CC1 (stereo partly shown) [Example 86]", "className": "fulfilled"}
{"molecule": "O=C(N[C@H]1CC[C@@]2(CCN(c3ccc(F)cc3Cl)C2=O)CC1)c1nnc2cccnn12 [Example 347]", "className": "not fulfilled"}
{"molecule": "O=C(N[C@H]1CC[C@@]2(CCN(c3ccc(OC(F)(F)F)cc3Cl)C2=O)CC1)c1cnn2cccnc12 [Example 354]", "className": "fulfilled"}
{"molecule": "Cc1nc2c(C(=O)N[C@H]3CC[C@H](C(=O)Nc4c(F)cc(F)cc4Cl)CC3)cnn2c2c1CCC2 [Example 363]", "className": "fulfilled"}
{"molecule": "NC(=O)c1nc[nH]c1C(=O)N[C@H]1CC[C@@]2(CCCN(c3cc(F)c(F)cc3Cl)C2=O)CC1 [Example 320]", "className": "fulfilled"}

###

- targetSystem: UniProt:Q9H2K2
- Sequence (Q9H2K2 1-1166): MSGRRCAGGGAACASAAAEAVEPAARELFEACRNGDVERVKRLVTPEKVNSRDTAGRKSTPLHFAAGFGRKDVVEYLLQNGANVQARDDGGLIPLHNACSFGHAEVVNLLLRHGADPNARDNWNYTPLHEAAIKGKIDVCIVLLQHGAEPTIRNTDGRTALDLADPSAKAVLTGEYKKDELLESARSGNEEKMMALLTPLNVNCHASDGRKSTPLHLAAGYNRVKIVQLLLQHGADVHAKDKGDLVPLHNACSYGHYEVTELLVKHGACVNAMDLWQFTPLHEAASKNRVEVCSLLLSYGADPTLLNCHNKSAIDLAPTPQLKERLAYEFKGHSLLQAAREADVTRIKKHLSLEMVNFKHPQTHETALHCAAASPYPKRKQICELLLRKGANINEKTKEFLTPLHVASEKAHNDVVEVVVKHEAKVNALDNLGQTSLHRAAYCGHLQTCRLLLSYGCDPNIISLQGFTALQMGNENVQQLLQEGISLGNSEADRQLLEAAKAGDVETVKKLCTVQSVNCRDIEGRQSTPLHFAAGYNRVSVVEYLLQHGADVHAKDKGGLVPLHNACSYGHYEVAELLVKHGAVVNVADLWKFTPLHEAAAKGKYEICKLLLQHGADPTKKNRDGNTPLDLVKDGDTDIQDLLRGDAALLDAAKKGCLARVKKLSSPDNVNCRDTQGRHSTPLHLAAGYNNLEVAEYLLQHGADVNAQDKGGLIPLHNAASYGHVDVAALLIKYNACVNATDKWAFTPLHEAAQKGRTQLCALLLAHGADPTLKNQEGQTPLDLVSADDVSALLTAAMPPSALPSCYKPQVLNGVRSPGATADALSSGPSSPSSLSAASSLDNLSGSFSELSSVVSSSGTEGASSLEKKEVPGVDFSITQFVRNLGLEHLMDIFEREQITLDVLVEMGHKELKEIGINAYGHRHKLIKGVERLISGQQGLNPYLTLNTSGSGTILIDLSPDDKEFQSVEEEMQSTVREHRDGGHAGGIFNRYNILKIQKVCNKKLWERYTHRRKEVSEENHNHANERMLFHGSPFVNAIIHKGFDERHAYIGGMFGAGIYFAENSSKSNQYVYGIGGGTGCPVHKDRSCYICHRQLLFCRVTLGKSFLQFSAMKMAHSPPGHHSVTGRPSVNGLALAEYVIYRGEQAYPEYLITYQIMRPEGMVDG
measurementKind: IC50

{"structureSmiles": "O=C(N[C@H]1CC[C@@]2(CCN(c3ccc(F)cc3Cl)C2=O)CC1)c1cnn2cccnc12", "valueMeasured": "4.7 nM"}
{"structureSmiles": "O=C(N[C@H]1CC[C@@]2(CCN(c3ccccc3Cl)C2=O)CC1)c1n[nH]c2cccnc12", "valueMeasured": "640 nM"}
{"structureSmiles": "O=C(N[C@H]1CC[C@@]2(CCN(c3ccccc3Cl)C2=O)CC1)c1cnn2cccnc12", "valueMeasured": "12 nM"}
{"structureSmiles": "COCc1cc(C)n2ncc(C(=O)N[C@H]3CC[C@H](C(=O)Nc4c(F)cc(F)cc4Cl)CC3)c2n1", "valueMeasured": "68 nM"}
{"structureSmiles": "Cc1cc(N2CC[C@]3(CC[C@@H](NC(=O)c4[nH]cnc4C(=O)N4CC(OC(F)F)C4)CC3)C2=O)c(Cl)cc1F", "valueMeasured": "8.3 nM"}
{"structureSmiles": "CN(C)c1ccc2ncc(C(=O)N[C@H]3CC[C@H](C(=O)Nc4ccc(F)cc4Cl)CC3)n2n1", "valueMeasured": "11 nM"}
{"structureSmiles": "CNC(=O)c1nc[nH]c1C(=O)N[C@H]1CC[C@H](C(=O)N(CCO)c2ccc(F)cc2Cl)CC1", "valueMeasured": "280 nM"}

###

Each entry below lists one item and its recorded IC50 value.
- targetSystem: TNKS2 (Homo sapiens)

{"structureSmiles": "CC(C)OCCNC(=O)c1nc[nH]c1C(=O)N[C@H]1CC[C@H](C(=O)Nc2ccc(F)cc2Cl)CC1", "unitOfMeasure": "µM", "qualifierOperator": "=", "IC50": 0.078}
{"structureSmiles": "Cn1nc(C(=O)N[C@H]2CC[C@H](C(=O)Nc3ccc(F)cc3Cl)CC2)c2ccccc21", "unitOfMeasure": "µM", "qualifierOperator": ">", "IC50": 10}
{"structureSmiles": "Cc1ccnc2c(C(=O)N[C@H]3CC[C@]4(CCN(c5ccc(F)cc5Cl)C4=O)CC3)cnn12", "unitOfMeasure": "µM", "qualifierOperator": "=", "IC50": 0.87}

###

- targetSystem: TNKS2 (Homo sapiens)
- Sequence (Q9H2K2 1-1166): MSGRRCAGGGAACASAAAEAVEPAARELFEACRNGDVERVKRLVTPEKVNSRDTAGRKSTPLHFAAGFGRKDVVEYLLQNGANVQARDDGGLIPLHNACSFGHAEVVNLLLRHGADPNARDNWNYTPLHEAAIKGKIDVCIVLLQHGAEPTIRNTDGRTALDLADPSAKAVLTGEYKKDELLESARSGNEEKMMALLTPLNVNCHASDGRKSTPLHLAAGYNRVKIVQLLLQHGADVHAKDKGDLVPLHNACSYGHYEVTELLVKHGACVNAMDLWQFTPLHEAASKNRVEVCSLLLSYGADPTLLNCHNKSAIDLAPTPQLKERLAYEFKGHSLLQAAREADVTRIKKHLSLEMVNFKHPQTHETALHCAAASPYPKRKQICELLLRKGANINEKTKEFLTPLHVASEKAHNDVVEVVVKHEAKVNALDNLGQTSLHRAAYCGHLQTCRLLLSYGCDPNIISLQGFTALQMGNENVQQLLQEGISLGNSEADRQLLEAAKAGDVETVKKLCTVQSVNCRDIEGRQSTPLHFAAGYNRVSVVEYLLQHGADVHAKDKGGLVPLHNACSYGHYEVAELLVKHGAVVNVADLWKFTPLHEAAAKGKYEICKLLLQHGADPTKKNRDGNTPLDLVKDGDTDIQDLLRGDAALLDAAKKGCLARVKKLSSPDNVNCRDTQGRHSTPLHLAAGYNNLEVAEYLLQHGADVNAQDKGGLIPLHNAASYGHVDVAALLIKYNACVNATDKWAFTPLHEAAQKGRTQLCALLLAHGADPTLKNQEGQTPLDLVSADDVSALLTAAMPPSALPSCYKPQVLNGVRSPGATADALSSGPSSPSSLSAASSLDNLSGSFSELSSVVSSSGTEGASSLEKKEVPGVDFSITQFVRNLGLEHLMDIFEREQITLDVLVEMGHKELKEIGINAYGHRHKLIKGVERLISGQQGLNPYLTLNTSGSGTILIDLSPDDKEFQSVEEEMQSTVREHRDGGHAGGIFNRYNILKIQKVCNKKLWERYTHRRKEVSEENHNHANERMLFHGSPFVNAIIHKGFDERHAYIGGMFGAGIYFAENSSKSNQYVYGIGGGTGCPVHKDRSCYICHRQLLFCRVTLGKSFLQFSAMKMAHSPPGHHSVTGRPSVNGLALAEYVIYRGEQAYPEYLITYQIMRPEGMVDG
pIC50: −log10 of the molar value.
Each entry below lists one item and its recorded pIC50 value.
measurementKind: pIC50

{"compound": "CC(O)CNc1ccc2ncc(C(=O)N[C@H]3CC[C@H](C(=O)Nc4ccc(F)cc4Cl)CC3)n2n1 (stereo partly drawn)", "qualifierOperator": "=", "valueMeasured": 6.32}
{"compound": "Cc1cc(C)n2ncc(C(=O)NC3CCC(C(=O)Nc4ccc(F)cc4Cl)CC3C)c2n1 (stereo not drawn)", "qualifierOperator": "=", "valueMeasured": 6.92}
{"compound": "CC1CN(C(=O)c2nc[nH]c2C(=O)N[C@H]2CC[C@@]3(CCN(c4ccc(F)cc4Cl)C3=O)CC2)CCS(=O)(=O)C1 (stereo partly drawn)", "qualifierOperator": "=", "valueMeasured": 6.40}
{"compound": "CNC(=O)c1nc[nH]c1C(=O)N[C@H]1CC[C@H](C(=O)N(C)c2ccccc2)CC1", "qualifierOperator": "=", "valueMeasured": 6.82}
{"compound": "CNC(=O)c1nc[nH]c1C(=O)N[C@H]1CC[C@@]2(CCN(c3ccccc3Cl)C2=O)CC1", "qualifierOperator": "=", "valueMeasured": 8.40}
{"compound": "COCCNC(=O)c1nc[nH]c1C(=O)N[C@H]1CC[C@@]2(CCN(c3cc(C)c(F)cc3Cl)C2=O)CC1", "qualifierOperator": "=", "valueMeasured": 8.31}
{"compound": "O=C(N[C@H]1CC[C@@]2(CCN(c3ccc(F)cc3Cl)C2=O)CC1)c1n[nH]c2ccccc12", "qualifierOperator": "<", "valueMeasured": 5.00}
{"compound": "O=C(N[C@H]1CC[C@]2(CCN(c3ccc(F)cc3Cl)C2=O)CC1)c1c[nH]c2cccnc12", "qualifierOperator": "=", "valueMeasured": 5.33}
{"compound": "O=C(NC1CC1)c1nc[nH]c1C(=O)N[C@H]1CC[C@H](C(=O)Nc2ccc(F)cc2Cl)CC1", "qualifierOperator": "=", "valueMeasured": 7.05}
{"compound": "Cc1cc(N2CC[C@]3(CC[C@@H](NC(=O)c4[nH]cnc4C(=O)N4CC(F)C4)CC3)C2=O)c(Cl)cc1F", "qualifierOperator": "=", "valueMeasured": 8.06}
{"compound": "O=C(N[C@H]1CC[C@@]2(CCN(c3ccc(F)cc3Cl)C2=O)CC1)c1nc[nH]c1C(=O)NCC(F)(F)F", "qualifierOperator": "=", "valueMeasured": 8.15}
{"compound": "Cc1cnc2c(C(=O)N[C@H]3CC[C@@]4(CCN(c5ccc(F)cc5)C4=O)CC3)cnn2c1", "qualifierOperator": "=", "valueMeasured": 7.04}
{"compound": "Cc1cnc2c(C(=O)N[C@H]3CC[C@H](C(=O)Nc4ccc(F)cc4Cl)CC3)cnn2c1", "qualifierOperator": "=", "valueMeasured": 7.47}
{"compound": "COCC(C)NC(=O)c1nc[nH]c1C(=O)N[C@H]1CC[C@H](C(=O)Nc2cc(F)c(F)cc2Cl)CC1 (stereo partly drawn)", "qualifierOperator": "=", "valueMeasured": 7.29}
{"compound": "O=C(N[C@H]1CC[C@@]2(CCN(c3cnccc3Cl)C2=O)CC1)c1cnn2cccnc12", "qualifierOperator": "=", "valueMeasured": 8.23}

Provenance of the data: patent US20180148418A1
